Tested on: CCRIS mutagenicity, Ames/micronucleus/aberration tests
Experiment: CCRIS mutagenicity studies
Settings: Test System: AMES SALMONELLA TYPHIMURIUM; Strain/Indicator: TA100; Metabolic Activation: HAMSTER, LIVER, S-9, AROCLOR 1254; Method: PREINCUBATION
Source text: The CCRIS database contains chemical records with carcinogenicity, mutagenicity, tumor promotion, and tumor inhibition test results. It was developed by the National Cancer Institute (NCI). Data are derived from studies cited in primary journals, current awareness tools, NCI reports, and other sources. Test results have been reviewed by experts in carcinogenesis and mutagenesis. CCRIS provides historical information from the years 1985 - 2011. It is no longer updated. […]
Activity calls are given as the source filed them. No rule for the calls is given here.
Would you mind answering with one of these outcomes? yes = active, no = inactive

# example entries with known answers
molecule	label
C=CC(=O)OCC	no
Oc1ccc(Cl)c(Cl)c1	no

Look up the recorded call for Nc1c(Br)cc(Br)c2c1C(=O)c1ccccc1C2=O in this test.
no

Look up the recorded call for O=[N+]([O-])c1cc(Cl)c(Cl)c(Cl)c1Cl in this test.
no

Look up the recorded call for C=CCOC(=O)CC(C)C in this test.
no

Look up the recorded call for COc1cccc(N)c1 in this test.
no

Look up the recorded call for O=C(O)c1ccccc1[N+](=O)[O-] in this test.
no

====

system: CCRIS mutagenicity, Ames/micronucleus/aberration tests; test: CCRIS mutagenicity studies; conditions: Test System: AMES SALMONELLA TYPHIMURIUM; Strain/Indicator: TA98; Metabolic Activation: RAT, LIVER, S-9, AROCLOR 1254; Method: STANDARD PLATE
Calls of active or inactive are those of the source. The rule behind the calls is not given here.
Would you mind answering with one of these outcomes? active, inactive

molecule	target under test	label
CC(=O)Nc1cc2c(cc1OC(C)=O)-c1ccccc1C2	CCRIS mutagenicity, Ames/micronucleus/aberration tests	inactive
COc1c(N)cc(C)c(N)c1C	CCRIS mutagenicity, Ames/micronucleus/aberration tests	inactive
Nc1cc2c(O)c(N=Nc3ccc(N=Nc4ccc(S(=O)(=O)O)cc4)c4ccc(S(=O)O)cc34)c(S(=O)(=O)O)cc2cc1S(=O)(=O)O	CCRIS mutagenicity, Ames/micronucleus/aberration tests	inactive
C=C(C)C(=O)OCCCCCCOC(=O)C(=C)C	CCRIS mutagenicity, Ames/micronucleus/aberration tests	inactive

Pending compound:
Look up the recorded call for COc1cccc2c1C(=O)c1c(O)c3c(c(O)c1C2=O)C[C@@](O)(C(=O)CO)C[C@@H]3O[C@H]1C[C@H](N)[C@H](O)[C@H](C)O1 in this test.
active

====

test system: CCRIS mutagenicity, Ames/micronucleus/aberration tests; assay: CCRIS mutagenicity studies; conditions: Test System: AMES SALMONELLA TYPHIMURIUM; Strain/Indicator: TA98; Metabolic Activation: RAT, LIVER, S-9, PHENOBARBITAL AND 5,6-BENZOFLAVONE; Method: PREINCUBATION
Active and inactive are the calls of the source. No rule for the calls is given here.
quantity: mutagenic call

Below: 7 molecules and their reported mutagenic call.
molecule	mutagenic call
CO/N=C(\C(=O)N[C@@H]1C(=O)N2C(C(=O)OCOC(=O)C(C)(C)C)=C(/C=C\c3scnc3C)CS[C@H]12)c1csc(N)n1	inactive; negative
OC[C@@H](O)[C@@H](O[C@@H]1O[C@H](CO)[C@H](O)[C@H](O)[C@H]1O)[C@H](O)[C@@H](O)CO	inactive; negative
COc1ccc2oc3cc(O)cc(O)c3c(=O)c2c1	active; positive
O=Cc1ccc([N+](=O)[O-])cc1[N+](=O)[O-]	active; positive
Cc1ccccc1N	inactive; negative
O=C(O)C(Cl)Cl	inactive; negative
CC1=CC(=O)C=C(C)C1=O	inactive; negative

Query molecule follows.
Give the reported mutagenic call for Cc1c(N)cccc1N=[N+]([O-])c1cccc(N)c1C (system: CCRIS mutagenicity, Ames/micronucleus/aberration tests).
active; positive

====

system: CCRIS mutagenicity, Ames/micronucleus/aberration tests; assay: CCRIS mutagenicity studies; settings: Test System: AMES SALMONELLA TYPHIMURIUM; Strain/Indicator: TA1535; Metabolic Activation: RAT, LIVER, S-9, AROCLOR 1254; Method: STANDARD PLATE
Active and inactive are the calls of the source. How the calls were made is not given here.
Would you mind answering with one of these outcomes? 1 for active, 0 for inactive

molecule	label
CN(C)C(=S)SSC(=S)N(C)C	1
C1CCCC2OC2CC1 (stereo unspecified)	0
C=CCc1ccc(OC)cc1	0

Look up the recorded call for CC1=CC(=O)C=C2CC[C@@H]3[C@H](CC[C@]4(C)C(=O)CC[C@@H]34)[C@@]12C in this test.
0

Look up the recorded call for CCO[Si](OCC)(OCC)OCC in this test.
0

Look up the recorded call for [O]=[Zr] in this test.
0

Look up the recorded call for O=C1CCC(=O)N1O in this test.
0

Look up the recorded call for OCl in this test.
0

Look up the recorded call for CC(=O)O[C@@H]1[C@@H](O)[C@H](O[C@H]2[C@H](OC(=O)[C@H]3CC[C@@H]4[C@H](C3)O[C@@]3(C[C@H](OC(=O)/C=C/c5ccccc5)[C@H](C)CO3)[C@]43CO3)O[C@H](C)[C@@H](O)[C@@H]2OC(C)=O)O[C@H](C)[C@H]1O in this test.
0

====

tested on: CCRIS mutagenicity, Ames/micronucleus/aberration tests; assay: CCRIS mutagenicity studies; conditions: Test System: AMES SALMONELLA TYPHIMURIUM; Strain/Indicator: TA98; Metabolic Activation: NONE; Method: STANDARD PLATE
Active and inactive are the calls of the source. How the calls were made is not given here.
Would you mind answering with one of these outcomes? active, inactive

# example entries with known answers
compound	label
O=[N+]([O-])c1ccc2c(c1)Cc1cc([N+](=O)[O-])ccc1-2	active
COc1ccc2nc(N)sc2c1	active

Look up the recorded call for CN(CCO)C(=O)Nc1ccc(Cl)c(Cl)c1 in this test.
inactive

Look up the recorded call for Oc1ccc(Cl)cc1 in this test.
inactive

Look up the recorded call for COP(=O)(OC)SC in this test.
inactive

====

test system: CCRIS mutagenicity, Ames/micronucleus/aberration tests; test: CCRIS mutagenicity studies; details: Test System: AMES SALMONELLA TYPHIMURIUM; Strain/Indicator: TA97; Metabolic Activation: NONE; Method: STANDARD PLATE
The source made the active and inactive calls. The rule behind the calls is not given here.
Would you mind answering with one of these outcomes? Yes = active, No = inactive

# example entries with known answers
compound	label
C=CCC1=C(C)C(OC(=O)[C@@H]2[C@@H](C=C(C)C)C2(C)C)CC1=O (some centres not stated)	Yes
Cc1c(N(C)C)c(=O)n(-c2ccccc2)n1C	No
COC(=O)Nc1nc2ccccc2[nH]1	No

Look up the recorded call for OC[C@H]1O[C@@H](n2cnc3c(NC[C@H](O)COc4cccc5ccccc45)ncnc32)[C@H](O)[C@@H]1O in this test.
No

Look up the recorded call for C[n+]1ccn(COCCC(C)(C)[N+](=O)[O-])c1/C=N/O in this test.
No

====

test system: CCRIS mutagenicity, Ames/micronucleus/aberration tests; assay: CCRIS mutagenicity studies; conditions: Test System: AMES SALMONELLA TYPHIMURIUM; Strain/Indicator: TA1535; Metabolic Activation: RAT, LIVER, S-9, SODIUM PHENOBARBITAL; Method: STANDARD PLATE
Calls of active or inactive are those of the source. No rule for the calls is given here.
quantity: mutagenic call

Below: 4 compounds and their reported mutagenic call.
molecule	mutagenic call
C=CC(=O)OCCCCC	inactive; negative
C=C(C)C(=O)OC(C)(C)C	inactive; negative
C=C(C)C(=O)OCCO	inactive; negative
C=C(C)C(=O)OCCCCCCOC(=O)C(=C)C	inactive; negative

Quick one: mutagenic call for C=CC(=O)OCC ?
inactive; negative

====

test system: CCRIS mutagenicity, Ames/micronucleus/aberration tests; test: CCRIS mutagenicity studies; details: Test System: AMES SALMONELLA TYPHIMURIUM; Strain/Indicator: TA100; Metabolic Activation: RAT, LIVER, S-9, AROCLOR 1254
Calls of active or inactive are those of the source. How the calls were made is not given here.
Would you mind answering with one of these outcomes? active, inactive

# example entries with known answers
compound	label
c1ccc2cc3c(cc2c1)-c1cccc2cccc-3c12	active
CC(C)NCC(O)COc1ccc(CC(N)=O)cc1 (stereo not given)	inactive
CC(C)CCC[C@@H](C)[C@H]1CC[C@H]2[C@@H]3CC4([C@H]5C[C@@H](Br)CC[C@]5(C)[C@H]3CC[C@]12C)S(=O)(=O)CCS4(=O)=O	inactive
O=C1[C@H]2CC=CC[C@H]2C(=O)N1SC(Cl)(Cl)Cl	active

Look up the recorded call for O=C1CCc2c1cc(C(F)(F)F)c1c2ccc2ccccc21 in this test.
active

====

system: CCRIS mutagenicity, Ames/micronucleus/aberration tests; assay: CCRIS mutagenicity studies; settings: Test System: AMES SALMONELLA TYPHIMURIUM; Strain/Indicator: TA100; Metabolic Activation: RAT, LIVER, S-9; Method: STANDARD PLATE
Active and inactive are the calls of the source. The rule behind the calls is not given here.
quantity: mutagenic call

Below: 5 molecules and their reported mutagenic call.
molecule	mutagenic call
Cc1ccc(N=Nc2c(O)c(C(=O)O)cc3ccccc23)cc1S(=O)(=O)O	inactive; negative
O=C(O)CN(CC(=O)O)CC(=O)O	inactive; negative
COC(=O)C1=CCCN(C)C1	active; positive
CCOP(=O)(OCC)Oc1nc(Cl)c(Cl)cc1Cl	inactive; negative
CCCN(CCC)N=O	inactive; negative

For each listed entry, give its mutagenic call.
1. C[C@]12C=CC3=C4CCC(=O)C=C4CC[C@H]3[C@@H]1CC[C@@H]2O
2. CCOP(=O)(OCC)Oc1ccc([N+](=O)[O-])cc1

inactive; negative
active; positive

Hello, the source for this data is PubChem BioAssay AID1259407, in case you need it.
